So I've got a bunch of molecules here, and I need their Cell growth ratio values.
- System: B-16 melanoma cells
- measurementNotes: Cell growth ratio in the quantification test (cell count)
- Format: cell-based
- conditions: 6.25 ppm, two days, relative to control
Give bare numbers, in %.

Answered cases to consult:
molecule	experimentalSystem	Cell growth ratio, %
CC(O)CC(=O)OC1CC(C)CCC1C(C)C (stereo not drawn)	B-16 melanoma cells	104.9
CC(=O)CC(=O)OC1CC(C)CCC1C(C)C (stereo not drawn)	B-16 melanoma cells	87.8
CC1CCC(C(C)C)C(OCCOCCO)C1 (stereo not drawn)	B-16 melanoma cells	96.4
OC[C@H]1O[C@@H](Oc2ccc(O)cc2)[C@H](O)[C@@H](O)[C@@H]1O [Arbutin, arbutin, reference compound]	B-16 melanoma cells	94.1
CC1CCC(C(C)C)C(OCC(O)CO)C1 (stereo not drawn)	B-16 melanoma cells	93.2

Reported Cell growth ratio for CC1CCC(C(C)C)C(OCCCO)C1 (stereo not drawn) : what is it?
103.1

The reported numbers originate from patent US20150087856A1.
